Target: GLP-1 receptor (GLP-1R), primary cAMP assay cell line (human, UniProt P43220 24-463)
Assay: cell-based or functional assay
Starred links: 1 amine or outer side, 2 acyl side, 3 side chain; linkers in the order of their positions; H or OH if unused. Non-standard residues stand in square brackets, D forms with d. Groups on a side chain read outwards from the residue. Primed or numbered codes have the meaning given here. No end group written: not given here. *: point of attachment. γGlu = O=C(O)[C@H](CCC(=O)[*:2])N[*:1]; αMeF = C[C@](N)(Cc1ccccc1)C(=O)O; αMeK = C[C@](N)(CCCCN)C(=O)O; Lauroyl = CCCCCCCCCCCC(=O)*; αMeS = C[C@](N)(CO)C(=O)O; PEG2′ = not defined here; Aib = CC(C)(N)C(=O)O
Items are presented alongside their recorded cAMP Primary assay EC50, n2.
Report as a plain number; the unit nM is understood.

Here's what some known entries look like.
Would you mind telling me what cAMP Primary assay EC50, n2 value was observed for H[Aib]EGS[αMeF]TSDV[αMeS]SYK([PEG2′-PEG2′-γGlu-Lauroyl])EGEK([PEG2′-PEG2′-γGlu-Lauroyl])A[αMeK]EFIK([PEG2′-PEG2′-γGlu-Lauroyl])FVVEGG-NH2 [SEQ ID NO: 453] ?
0.165

Would you mind telling me what cAMP Primary assay EC50, n2 value was observed for H[Aib]EGS[αMeF]TSDK([PEG2′-PEG2′-γGlu-Lauroyl])SSYLEGEAA[αMeK]K([PEG2′-PEG2′-γGlu-Lauroyl])FIAK([PEG2′-PEG2′-γGlu-Lauroyl])VVEGG-NH2 [SEQ ID NO: 458] ?
0.0464

***
Would you mind telling me what cAMP Primary assay EC50, n2 value was observed for H[Aib]EGS[αMeF]TSDVSK([PEG2′-PEG2′-γGlu-Lauroyl])YLEGEAA[αMeK]K([PEG2′-PEG2′-γGlu-Lauroyl])FIAFK([PEG2′-PEG2′-γGlu-Lauroyl])VEGG-NH2 [SEQ ID NO: 478] ?
0.134

Would you mind telling me what cAMP Primary assay EC50, n2 value was observed for H[Aib]EGS[αMeF]TSDV[αMeS]SK([PEG2′-PEG2′-γGlu-Lauroyl])LEGK([PEG2′-PEG2′-γGlu-Lauroyl])AA[αMeK]EFIAFK([PEG2′-PEG2′-γGlu-Lauroyl])VEGG-NH2 [SEQ ID NO: 480] ?
0.0589

Where these numbers come from: patent US20200079833A1
